Below: a set of entries, each annotated with reported Cell viability.
Test system: THP-1 cells
Test: CCK-8 cell viability of THP-1 cells after 48 h compound treatment in HaCaT/THP-1 co-culture
Type: cell-based, human
Conditions: 1000 μg/mL, 48 h, THP-1, individual replicate values
A number alone suffices; assume %.

INSERT INTO assay_data (compound, targetentity, measurementtype, unitlabel, readoutnumber) VALUES
  ('N#CCCC(Br)(C#N)CBr (centres unmarked) [bromoml, 1,2-dibromo-2,4-dicyanobutane]', 'THP-1 cells', 'Cell viability', '%', 12.3609),
  ('CC(C)(C)c1cc(O)ccc1O [THBQ, Tert-butylhydroquinone]', 'THP-1 cells', 'Cell viability', '%', 15.3191),
  ('O=c1c(-c2ccccc2)c1-c1ccccc1 [diphenylcyclopropenone, Diphenylcyclopropenone]', 'THP-1 cells', 'Cell viability', '%', 33.1277),
  ('O=[N+]([O-])c1ccc(Cl)c([N+](=O)[O-])c1 [DNCB, 2,4-dinitrochlorobenzene]', 'THP-1 cells', 'Cell viability', '%', 11.5516);

response.value for CC(C)CCCC(C)CCCC(C)CCCCC(C)CCCC(C)CCCC(C)C (centres unmarked) [squalane, Squalane] (field: Cell viability) = 95.019

###

Assay: CCK-8 cell viability of THP-1 cells after 48 h compound treatment in HaCaT/THP-1 co-culture
Assay type: cell-based, human
Details: human, THP-1 cells in co-culture with HaCaT cells; THP-1 cells, 48 h treatment, CCK-8, range 1,000 to 3.9 μg/mL; read-out: IC50 (cytotoxicity)
measurementType: IC50 at 48 h

INSERT INTO measurements (molecule, result) VALUES
  ('OCC(O)CO', '> 1000 µg/mL');

Now for the molecule whose IC50 at 48 h we want.
The molecule identified as CC(C)CCCC(C)CCCC(C)CCCCC(C)CCCC(C)CCCC(C)C (centres unmarked) registered its IC50 at 48 h at > 1000 µg/mL

###

System: THP-1 cells
Assay: CCK-8 cell viability of THP-1 cells after 48 h compound treatment in HaCaT/THP-1 co-culture
Type: cell-based, human
Settings: human, 48 h, 31.25 μg/mL
Measured Cell viability values are reported for all entries that follow.
Give just the number in %; leave the unit off.

INSERT INTO assay_data (compound, targetentity, readoutnumber) VALUES
  ('OCC(O)CO', 'THP-1 cells', 116.476),
  ('N#CCCC(Br)(C#N)CBr (stereo not drawn)', 'THP-1 cells', 11.782),
  ('CC(C)(C)c1cc(O)ccc1O [THBQ, Tert-butylhydroquinone]', 'THP-1 cells', 104.716),
  ('Sc1nc2ccccc2s1', 'THP-1 cells', 70.7399),
  ('Oc1cccc(O)c1', 'THP-1 cells', 84.1435);

// next entry
Entry C=CCc1ccc(O)c(OC)c1 — recorded Cell viability = 101.56

###

Entries and their viability at 48 h, 1.95312 μg/mL values follow.
Assay: CCK-8 cell viability of THP-1 cells after 48 h compound treatment in HaCaT/THP-1 co-culture
Type: cell-based, human
Settings: human, 1.95312 μg/mL, 48 h, THP-1, individual replicate values
Procedure: The co-culture system was set up according to the following described method. […] THP-1 cells were collected, centrifuged, and re-suspended in fresh RPMI-1640 medium supplemented with 10% FBS at 2 × 10^6 cells/mL. […] After 48 h of treatment, the treated cells were collected 100 μL cells per well. […] THP-1 cell viability was determined using standard calculation methods. The cytotoxicity of 15 test compounds listed in Table 1 was assessed using THP-1 cells across a concentration range of 1,000 to 3.9 μg/mL. […]
# unit: % | format: bare number

INSERT INTO results (chemsmiles, unitlabel, readoutnumber) VALUES
  ('O=[N+]([O-])c1ccc(Cl)c([N+](=O)[O-])c1', '%', 88.2);

The measured viability at 48 h, 1.95312 μg/mL associated with C=CCc1ccc(O)c(OC)c1 reads 85.9
